Overview of reported log2 fold change of degron read counts across a group of sequences:
Biological target: T1, CRBN, Q96SW2;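 note: pooled lentiviral library of zinc finger degron-EGFP fusions in mCherry-positive Jurkat cells, FACS-sorted after compound exposure, with degron abundance counted by next-generation sequencing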
T1 chain: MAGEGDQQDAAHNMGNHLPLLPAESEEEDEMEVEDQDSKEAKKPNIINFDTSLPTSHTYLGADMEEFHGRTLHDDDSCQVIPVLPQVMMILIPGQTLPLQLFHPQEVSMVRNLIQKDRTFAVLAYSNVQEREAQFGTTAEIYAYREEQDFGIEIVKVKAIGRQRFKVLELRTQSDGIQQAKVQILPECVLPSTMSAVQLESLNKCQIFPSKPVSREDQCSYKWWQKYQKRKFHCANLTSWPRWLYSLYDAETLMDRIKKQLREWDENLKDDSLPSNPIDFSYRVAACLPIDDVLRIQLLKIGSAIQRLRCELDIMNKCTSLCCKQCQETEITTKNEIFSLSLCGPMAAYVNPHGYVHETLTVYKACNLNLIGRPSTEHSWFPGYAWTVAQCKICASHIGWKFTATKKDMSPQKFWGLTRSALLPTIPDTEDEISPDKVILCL
Assay: log2 fold change of degron read counts, EGFP-low vs EGFP+ sorted cells (limma voom), compound-induced degradation; higher = more compound-induced degradation of the degron-EGFP fusion; degrons are variants of IKZF1/3 zinc finger 2; compound dose not given here
Conditions: Jurkat; 18 h; compound: compound 22 (5-morpholino-thalidomide)
Whole data set: some 8,300 sequences, median “log2 fold change of degron read counts, EGFP-low vs EGFP+ sorted cells (limma voom), compound-induced degradation” near -1.1, cut for the highest 2% near 3.2. The full list was thinned out, with the highest values kept by preference.

[
  {
    "MONOMER_SEQUENCE": "FCCNVCGAVFTQKGNLLRHIKL [46F_47C_49N_50V_52G_53A_54V_55F_67L_, Q9UKT9]",
    "log2 fold change of degron read counts": -0.182
  },
  {
    "MONOMER_SEQUENCE": "FSCPVCGAPFTQKGNLLRHIKL [46F_47S_49P_50V_52G_53A_54P_55F_67L_, Q9UKT9]",
    "log2 fold change of degron read counts": 2.37
  },
  {
    "MONOMER_SEQUENCE": "LTCNQCGFPCTQKGNLLRHIKL [46L_47T_49N_50Q_52G_53F_54P_55C_67L_, Q9UKT9]",
    "log2 fold change of degron read counts": -2.96
  },
  {
    "MONOMER_SEQUENCE": "FLCPVCGAPFTQKGNLLRHIKL [46F_47L_49P_50V_52G_53A_54P_55F_67L_, Q9UKT9]",
    "log2 fold change of degron read counts": 2.67
  },
  {
    "MONOMER_SEQUENCE": "FDCNICGAGFTQKGNLLRHIKL [46F_47D_49N_50I_52G_53A_54G_55F_67L_, Q9UKT9]",
    "log2 fold change of degron read counts": -1.59
  },
  {
    "MONOMER_SEQUENCE": "FGCPVCGAPFTQKGNLLRHIKL [46F_47G_49P_50V_52G_53A_54P_55F_67L_, Q9UKT9]",
    "log2 fold change of degron read counts": 1.9
  },
  {
    "MONOMER_SEQUENCE": "FICDVCGAPFTQKGNLLRHIKL [46F_47I_49D_50V_52G_53A_54P_55F_67L_, Q9UKT9]",
    "log2 fold change of degron read counts": 3.08
  },
  {
    "MONOMER_SEQUENCE": "FTCSVCGHAFTQKGNLLRHIKL [46F_47T_49S_50V_52G_53H_54A_55F_67L_, Q9UKT9]",
    "log2 fold change of degron read counts": -3.26
  },
  {
    "MONOMER_SEQUENCE": "FQCDICGAFFTQKGNLLRHIKL [46F_47Q_49D_50I_52G_53A_54F_55F_67L_, Q9UKT9]",
    "log2 fold change of degron read counts": -1.64
  },
  {
    "MONOMER_SEQUENCE": "FGCNVCGAPFTQKGNLLRHIKL [46F_47G_49N_50V_52G_53A_54P_55F_67L_, Q9UKT9]",
    "log2 fold change of degron read counts": -1.44
  },
  {
    "MONOMER_SEQUENCE": "FWCPICGAKFTQKGNLLRHIKL [46F_47W_49P_50I_52G_53A_54K_55F_67L_, Q9UKT9]",
    "log2 fold change of degron read counts": 3.43
  },
  {
    "MONOMER_SEQUENCE": "FCCPVCGAPFTQKGNLLRHIKL [46F_47C_49P_50V_52G_53A_54P_55F_67L_, Q9UKT9]",
    "log2 fold change of degron read counts": 2.6
  },
  {
    "MONOMER_SEQUENCE": "FACPVCGAPFTQKGNLLRHIKL [46F_47A_49P_50V_52G_53A_54P_55F_67L_, Q9UKT9]",
    "log2 fold change of degron read counts": 2.58
  },
  {
    "MONOMER_SEQUENCE": "FHCPICGAKFTQKGNLLRHIKL [46F_47H_49P_50I_52G_53A_54K_55F_67L_, Q9UKT9]",
    "log2 fold change of degron read counts": 2.09
  },
  {
    "MONOMER_SEQUENCE": "FYCDVCGATFTQKGNLLRHIKL [46F_47Y_49D_50V_52G_53A_54T_55F_67L_, Q9UKT9]",
    "log2 fold change of degron read counts": 2.82
  }
]
